tested on: STS26T NF1+/+ MPNST cells; experiment: 3-day resazurin cell proliferation assay, STS26T MPNST cells; assay type: cell-based, human; conditions: Homo sapiens, STS-26T, 72 h; 3-day resazurin proliferation assay, average IC50; read-out: IC50 (nM) STS26T NF1+/+ MPNST cells
observed-property: IC50

>  <compound>
COc1ccc([C@@]23Oc4cc(OC)cc(OC)c4[C@]2(O)[C@H](O)C[C@H]3c2ccccc2)cc1 [Rocaglaol]

>  <measured-result>
40 nM

$$$$

----------
test: in vivo; parameters: species or system mice; details: mouse, po, 5 mg/kg

>  <compound>
COc1ccc([C@@]23Oc4cc(OC)cc(OC)c4[C@]2(O)[C@H](O)[C@H](C(=O)N(C)C)[C@H]3c2ccccc2)cc1 [Roc, rocaglamide]

>  <bioavailability>
~50%

$$$$

----------
assay: in vivo; set-up: species or system mice; settings: mouse, po, 5 mg/kg

>  <compound>
COc1ccc([C@@]23Oc4cc(OC)cc(OC)c4[C@]2(O)[C@H](O)[C@H](C(=O)N(C)C)[C@H]3c2ccccc2)cc1 [Roc, rocaglamide]

>  <Cmax>
~800 nM

$$$$

----------
test system: Ben-Men-1 NF2−/− meningioma cells; experiment: 3-day resazurin cell proliferation assay, Ben-Men-1 meningioma cells; format: cell-based, human; conditions: Homo sapiens, 72 h; 3-day resazurin proliferation assay, average IC50; read-out: IC50 (nM) Ben-Men-1 NF2−/− meningioma cells
observed-property: IC50

>  <compound>
COc1ccc([C@@]23Oc4cc(OC)cc(OC)c4[C@]2(O)[C@H](O)C[C@H]3c2ccccc2)cc1

>  <measured-result>
100 nM

$$$$

----------
test system: STS26T NF1+/+ MPNST cells; test: 3-day resazurin cell proliferation assay, STS26T MPNST cells; type: cell-based, human; details: 3-day resazurin proliferation assay, average IC50; read-out: IC50 (nM) STS26T NF1+/+ MPNST cells
Listed here are compounds together with their documented IC50.
observed-property: IC50 (nM)

>  <compound>
COc1cc(OC)c2c(c1)OC1(c3ccc4c(c3)OCO4)C(c3ccccc3)CC(O)C21OC (stereo not shown)

>  <result-units>
nM

>  <comparison-operator>
=

>  <measured-result>
5000

$$$$
>  <compound>
COC(=O)C1C(O)C2(O)c3c(OC)cc(OC)cc3OC2(c2ccc3c(c2)OCO3)C1c1ccccc1 (stereo not shown)

>  <result-units>
nM

>  <comparison-operator>
=

>  <measured-result>
35

$$$$
>  <compound>
COC(=O)C1C(O)C2(OC)c3c(OC)cc(OC)cc3OC2(c2ccc3c(c2)OCO3)C1c1ccccc1 (stereo not shown)

>  <result-units>
nM

>  <comparison-operator>
=

>  <measured-result>
1300

$$$$
>  <compound>
COC(=O)C1C(O)C2(OC)c3c(OC)cc(OC)cc3OC2(c2ccc(OC)cc2)C1c1ccccc1 (stereo not shown) [Methyl 8b-O-methylrocaglate]

>  <result-units>
nM

>  <comparison-operator>
≥

>  <measured-result>
10000

$$$$
>  <compound>
COc1ccc([C@@]23Oc4cc(OC)cc(OC)c4[C@]2(OC)[C@H](O)C[C@H]3c2ccccc2)cc1 [8b-O-methylrocaglaol]

>  <result-units>
nM

>  <comparison-operator>
>

>  <measured-result>
20000

$$$$
>  <compound>
COC(=O)[C@H]1[C@@H](O)[C@@]2(O)c3c(OC)cc(OC)cc3O[C@@]2(c2ccc(OC)cc2)[C@@H]1c1ccccc1 [Methyl rocaglate]

>  <result-units>
nM

>  <comparison-operator>
=

>  <measured-result>
25

$$$$
>  <compound>
COc1cc(OC)c2c(c1)OC1(c3ccc4c(c3)OCO4)C(c3ccccc3)CC(O)C21O (stereo not shown)

>  <result-units>
nM

>  <comparison-operator>
=

>  <measured-result>
55

$$$$
